Assay: Cytotoxicity against human L02 cells assessed as cell viability at 50 uM incubated for 24 hrs by MTT assay
Assay type: cell-based
Conditions: read-out: Activity
PROPERTY NAME: viability at 24 h, 50 µM (%)
Numbers only, in %.

[
  {
    "RECORD SMILES": "C=C(C)[C@@H]1CCC(C)=C[C@H]1c1c(O)cc(CCCCC)cc1OC(=O)N(C)Cc1ccc(Cl)cc1",
    "viability at 24 h, 50 µM, %": 96
  }
]

Here is the next item to consider.
The reported viability at 24 h, 50 µM of the molecule C=C(C)[C@@H]1CCC(C)=C[C@H]1c1c(O)cc(CCCCC)cc1O was 92.6

###

Biological target: UniProtKB O42275
Assay: Inhibition of electric eel AChE using acetylthiocholine iodide as substrate at 20 uM preincubated with enzyme for 20 mins followed by substrate addition and measured after 20 mins by Ellman's method
Settings: time 40.0 min
PROPERTY NAME: inhibition (%)
Numbers only, in %.

Worked cases, inhibition given:
[
  {
    "RECORD SMILES": "C=C(C)[C@@H]1CCC(C)=C[C@H]1c1c(O)cc(CCCCC)cc1OC(=O)N1CCCCC1",
    "UNIT TAG": "%",
    "inhibition": 30.5
  },
  {
    "RECORD SMILES": "C=C(C)[C@@H]1CCC(C)=C[C@H]1c1c(O)cc(CCCCC)cc1OC(=O)N(C)Cc1ccc(Cl)cc1",
    "UNIT TAG": "%",
    "inhibition": 21.4
  },
  {
    "RECORD SMILES": "C=C(C)[C@@H]1CCC(C)=C[C@H]1c1c(O)cc(CCCCC)cc1OC(=O)N(C)C",
    "UNIT TAG": "%",
    "inhibition": 36.1
  }
]

Here is the next item to consider.
The reported inhibition of the compound C=C(C)[C@@H]1CCC(C)=C[C@H]1c1c(O)cc(CCCCC)cc1OC(=O)N(CC)CC was 28.4

###

So I've got a bunch of molecules here, and I need their Papp at 18 h, 100 ug/ml values.
Test: Permeability of the compound at 100 ug/ml incubated for 18 hrs by PAMPA
Assay type: ADME
Settings: dose 100 µg/ml, read-out: permeability
Numbers only, in ×10⁻⁶ cm/s.

Worked cases, Papp at 18 h, 100 ug/ml given:
[
  {
    "RECORD SMILES": "C=C(C)[C@@H]1CCC(C)=C[C@H]1c1c(O)cc(CCCCC)cc1O",
    "Papp at 18 h, 100 ug/ml / ×10⁻⁶ cm/s": 22.7
  },
  {
    "RECORD SMILES": "C=C(C)[C@@H]1CCC(C)=C[C@H]1c1c(O)cc(CCCCC)cc1OC(=O)N(C)Cc1ccc(Cl)cc1",
    "Papp at 18 h, 100 ug/ml / ×10⁻⁶ cm/s": 12.9
  }
]

Here is the next item to consider.
The reported Papp at 18 h, 100 ug/ml of the molecule C=C(C)[C@@H]1CCC(C)=C[C@H]1c1c(O)cc(CCCCC)cc1OC(=O)N(C)CC was 18.8

###

Molecular target: UniProt P81908
Assay: Pseudo-irreversible inhibition of equine serum BuChE assessed as binding affinity in an equilibrium state using butyrylthiocholine iodide as substrate preincubated with enzyme for 60 mins prior to substrate addition
So I've got a bunch of molecules here, and I need their Kd values.
Report field: quantity (unit follows the number).

[
  {
    "RECORD SMILES": "C=C(C)[C@@H]1CCC(C)=C[C@H]1c1c(O)cc(CCCCC)cc1OC(=O)N(C)Cc1ccc(Cl)cc1",
    "PROPERTY NAME": "Kd",
    "RESULT": "0.013 µM"
  }
]

Here is the next item to consider.
The reported Kd of the molecule C=C(C)[C@@H]1CCC(C)=C[C@H]1c1c(O)cc(CCCCC)cc1OC(=O)N1CCCC1 was 0.35 µM

###

Molecular target: Acetylcholinesterase (Electrophorus electricus, UniProt O42275)
Sequence (O42275 whole entry): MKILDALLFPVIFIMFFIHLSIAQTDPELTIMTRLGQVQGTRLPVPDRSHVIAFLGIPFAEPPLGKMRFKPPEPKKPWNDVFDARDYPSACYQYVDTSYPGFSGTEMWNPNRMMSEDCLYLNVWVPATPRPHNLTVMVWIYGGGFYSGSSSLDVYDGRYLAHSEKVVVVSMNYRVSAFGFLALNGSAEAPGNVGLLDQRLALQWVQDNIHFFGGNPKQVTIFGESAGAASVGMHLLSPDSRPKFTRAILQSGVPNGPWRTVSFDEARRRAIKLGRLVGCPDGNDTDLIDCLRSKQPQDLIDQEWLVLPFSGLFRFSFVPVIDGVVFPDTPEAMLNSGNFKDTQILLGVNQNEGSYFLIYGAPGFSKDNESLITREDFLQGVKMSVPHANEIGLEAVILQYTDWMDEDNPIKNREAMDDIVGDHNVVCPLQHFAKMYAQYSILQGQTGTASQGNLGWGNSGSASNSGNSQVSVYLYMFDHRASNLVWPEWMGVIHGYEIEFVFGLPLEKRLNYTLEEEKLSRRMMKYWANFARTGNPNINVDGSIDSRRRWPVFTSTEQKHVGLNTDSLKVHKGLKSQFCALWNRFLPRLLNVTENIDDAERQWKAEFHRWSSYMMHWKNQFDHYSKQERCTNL
Assay: Inhibition of electric eel AChE using acetylthiocholine iodide as substrate preincubated with enzyme for 20 mins followed by substrate addition and measured after 20 mins by Ellman's method
Conditions: read-out: IC50
So I've got a bunch of molecules here, and I need their IC50 values.
Give bare numbers, in µM.

[
  {
    "RECORD SMILES": "C=C(C)[C@@H]1CCC(C)=C[C@H]1c1c(O)cc(CCCCC)cc1O",
    "SYSTEM": "Acetylcholinesterase (Electrophorus electricus, UniProt O42275)",
    "IC50 / µM": 17.1
  }
]

The reported IC50 of the molecule C=C(C)[C@@H]1CCC(C)=C[C@H]1c1c(O)cc(CCCCC)cc1OC(=O)N(C)CC was 15

###

Target: Cholinesterase (Equus caballus, UniProt P81908)
Sequence (P81908 whole entry): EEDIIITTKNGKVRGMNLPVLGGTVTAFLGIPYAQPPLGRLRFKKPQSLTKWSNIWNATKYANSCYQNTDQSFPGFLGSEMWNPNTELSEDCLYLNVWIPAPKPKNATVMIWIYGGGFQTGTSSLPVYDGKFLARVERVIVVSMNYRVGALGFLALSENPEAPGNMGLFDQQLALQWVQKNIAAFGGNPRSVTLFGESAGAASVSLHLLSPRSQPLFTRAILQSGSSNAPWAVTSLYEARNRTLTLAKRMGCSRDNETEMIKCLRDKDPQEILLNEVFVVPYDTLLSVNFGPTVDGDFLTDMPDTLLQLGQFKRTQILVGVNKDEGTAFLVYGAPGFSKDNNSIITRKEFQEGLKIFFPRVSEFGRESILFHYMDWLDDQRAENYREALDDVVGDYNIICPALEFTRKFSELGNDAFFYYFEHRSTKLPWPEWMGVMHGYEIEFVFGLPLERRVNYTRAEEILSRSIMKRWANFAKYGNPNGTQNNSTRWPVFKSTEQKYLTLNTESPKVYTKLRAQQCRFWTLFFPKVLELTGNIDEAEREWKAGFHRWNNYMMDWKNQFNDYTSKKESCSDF
So I've got a bunch of compounds here, and I need their pIC50 values.
Give bare numbers, as −log10 of the molar value.

Worked cases, pIC50 given:
[
  {
    "RECORD SMILES": "C=C(C)[C@@H]1CCC(C)=C[C@H]1c1c(OC(=O)N(C)CC)cc(CCCCC)cc1OC(=O)N(C)CC",
    "pIC50": 6.54
  },
  {
    "RECORD SMILES": "C=C(C)[C@@H]1CCC(C)=C[C@H]1c1c(O)cc(CCCCC)cc1OC(=O)N(C)Cc1ccc(Cl)cc1",
    "pIC50": 8.28
  },
  {
    "RECORD SMILES": "C=C(C)[C@@H]1CCC(C)=C[C@H]1c1c(OC(=O)N2CCOCC2)cc(CCCCC)cc1OC(=O)N1CCOCC1",
    "pIC50": 5.47
  },
  {
    "RECORD SMILES": "C=C(C)[C@@H]1CCC(C)=C[C@H]1c1c(O)cc(CCCCC)cc1OC(=O)N(C)C",
    "pIC50": 6.70
  }
]

// each compound listed below needs its pIC50
1. C=C(C)[C@@H]1CCC(C)=C[C@H]1c1c(O)cc(CCCCC)cc1OC(=O)N(C)Cc1ccc(F)cc1
2. C=C(C)[C@@H]1CCC(C)=C[C@H]1c1c(O)cc(CCCCC)cc1OC(=O)N(C)Cc1ccccc1
3. C=C(C)[C@@H]1CCC(C)=C[C@H]1c1c(O)cc(CCCCC)cc1OC(=O)N(CC)CC
4. C=C(C)[C@@H]1CCC(C)=C[C@H]1c1c(O)cc(CCCCC)cc1O

1. 7.16
2. 7.34
3. 6.43
4. 6.17

###

Assay: Cytotoxicity against human HepG2 cells assessed as cell viability at 50 uM incubated for 24 hrs by MTT assay
Type: cell-based
Details: read-out: Activity
PROPERTY NAME: viability at 24 h, 50 µM (%)
Give bare numbers, in %.

[
  {
    "COMPOUND": "COc1cc2c(cc1OC)C(=O)C(CC1CCN(Cc3ccccc3)CC1)C2 (configuration not stated) [DONEPEZIL]",
    "UNIT TAG": "%",
    "RESULT NUMBER": 91.1
  }
]

Here is the next item to consider.
The reported viability at 24 h, 50 µM of the compound C=C(C)[C@@H]1CCC(C)=C[C@H]1c1c(O)cc(CCCCC)cc1OC(=O)N(C)Cc1ccc(Cl)cc1 was 88.3

###

Assay: n-Octanol/PBS partition coefficient, logP of the compound incubated for 48 hrs at pH 7.4 by shake flask method
Type: physicochemical
The threshold is inclusive: logD at 48 h of exactly 2 counts as Met; values below receive Not met.

[
  {
    "COMPOUND": "C=C(C)[C@@H]1CCC(C)=C[C@H]1c1c(O)cc(CCCCC)cc1O [CANNABIDIOL]",
    "QUALITATIVE LABEL": "Not met"
  },
  {
    "COMPOUND": "C=C(C)[C@@H]1CCC(C)=C[C@H]1c1c(OC(=O)N(C)CC)cc(CCCCC)cc1OC(=O)N(C)CC",
    "QUALITATIVE LABEL": "Met"
  },
  {
    "COMPOUND": "C=C(C)[C@@H]1CCC(C)=C[C@H]1c1c(O)cc(CCCCC)cc1OC(=O)N(C)Cc1ccc(Br)cc1",
    "QUALITATIVE LABEL": "Met"
  }
]

Decide: logD at 48 h of C=C(C)[C@@H]1CCC(C)=C[C@H]1c1c(O)cc(CCCCC)cc1OC(=O)N(C)Cc1ccc(Cl)cc1 >= 2?
Met

Decide: logD at 48 h of C=C(C)[C@@H]1CCC(C)=C[C@H]1c1c(O)cc(CCCCC)cc1OC(=O)N(C)Cc1ccccc1 >= 2?
Met

Decide: logD at 48 h of C=C(C)[C@@H]1CCC(C)=C[C@H]1c1c(O)cc(CCCCC)cc1OC(=O)N(C)CC >= 2?
Not met
